- subjectOfTest: T1, human nerve growth factor (human, UniProt P01138 122-241)
- T1 construct: Immobilised on CM5 chips for BIAcore, soluble in neuron survival assays; also called human NGF; hNGF
- assayProtocol: BIAcore SPR screen, Fab over immobilised human NGF; KD calculated from koff with kon 4e4 M-1s-1
readoutLabel: pKd
Hey, just a heads up that pKd is the negative log base 10 of the concentration in molar.

Solved entries:
# input Identify pKd associated with the binder antibody E3 (Fab) (Fab, V domains shown, Fab with human IgG2 CH1 and human kappa constant domain; His tag at the heavy chain C terminus in the E. coli format; also called Fab E3; 3E Fab) VH: QVQLQESGPGLVKPSETLSLTCTVSGFSLIGYDLNWIRQPPGKGLEWIGIIWGDGTTDYNSAVKSRVTISKDTSKNQFSLKLSSVTAADTAVYYCARGGYWYATSYYFDYWGQGTLVTVS VL: DIQMTQSPSSLSASVGDRVTITCRASQSISNNLNWYQQKPGKAPKLLIYYTSRFHSGVPSRFSGSGSGTDFTFTISSLQPEDIATYYCQQEHTLPYTFGQGTKLEIKR
# output 9.52

# input Identify pKd associated with the binder clone 3C (Fab) (Fab, V domains shown, same L1, L2, H1, H2 mutations as 3E; See note of m8; also called Fab 3C) VH: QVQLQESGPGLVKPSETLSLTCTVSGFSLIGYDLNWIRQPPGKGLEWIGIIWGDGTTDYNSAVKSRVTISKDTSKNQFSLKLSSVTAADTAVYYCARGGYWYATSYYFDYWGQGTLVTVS VL: DIQMTQSPSSLSASVGDRVTITCRASQSISNNLNWYQQKPGKAPKLLIYYTSRFHSGVPSRFSGSGSGTDFTFTISSLQPEDIATYYCQQERTLPYTFGQGTKLEIKR
# output 9.46

Further cases:
# input Identify pKd associated with the binder 8L2-6D5 template Fab with L_S91E; L_K92A and H_Y101W; H_G103A (Fab, V domains shown, See note of m8) VH: QVQLQESGPGLVKPSETLSLTCTVSGFSLIGYDINWIRQPPGKGLEWIGMIWGDGTTDYNSALKSRVTISKDTSKNQFSLKLSSVTAADTAVYYCARGGYWYATSYYFDYWGQGTLVTVS VL: DIQMTQSPSSLSASVGDRVTITCRASQDISNHLNWYQQKPGKAPKLLIYYISRFHSGVPSRFSGSGSGTDFTFTISSLQPEDIATYYCQQEATLPYTFGQGTKLEIKR
# output 7.89

# input Identify pKd associated with the binder H19-L129 template Fab with L_S91E; L_K92S and H_Y101W; H_G103S (Fab, V domains shown, See note of m8) VH: QVQLQESGPGLVKPSETLSLTCTVSGFSLIGYDLNWIRQPPGKGLEWIGIIWGDGTTDYNSAVKSRVTISKDTSKNQFSLKLSSVTAADTAVYYCARGGYWYSTSYYFDYWGQGTLVTVS VL: DIQMTQSPSSLSASVGDRVTITCRASQSISNNLNWYQQKPGKAPKLLIYYTSRFHSGVPSRFSGSGSGTDFTFTISSLQPEDIATYYCQQESTLPYTFGQGTKLEIKR
# output 8.96
